# Format: in vivo, mice
# run parameters: mouse, tumor-injected brain hemisphere, intraperitoneal, 1 mg/kg
readout label: half-life

Lookup: Which value of half-life has been reported for CNCc1ccc(-c2[nH]c3cc(F)cc4c3c2CCNC4=O)cc1 [rucaparib] in the records?
Found: 13 h

* * *

# Assay type: in vivo, mice
# run parameters: mouse, plasma, ip, 1 mg/kg
readout label: half-life (h)
# unit: h | format: bare number

Lookup: If you can, please state the reported half-life value of CNCc1ccc(-c2[nH]c3cc(F)cc4c3c2CCNC4=O)cc1 [rucaparib] .
Found: 1.5
